Would you kindly list EC50 for each of these molecules?
# Target entity: α1β2γ2 GABA receptors (α1β2γ2-CHO-TRex stable cell strain) (Homo sapiens, UniProt P14867+P47870)
# Sequence (P14867 28-456): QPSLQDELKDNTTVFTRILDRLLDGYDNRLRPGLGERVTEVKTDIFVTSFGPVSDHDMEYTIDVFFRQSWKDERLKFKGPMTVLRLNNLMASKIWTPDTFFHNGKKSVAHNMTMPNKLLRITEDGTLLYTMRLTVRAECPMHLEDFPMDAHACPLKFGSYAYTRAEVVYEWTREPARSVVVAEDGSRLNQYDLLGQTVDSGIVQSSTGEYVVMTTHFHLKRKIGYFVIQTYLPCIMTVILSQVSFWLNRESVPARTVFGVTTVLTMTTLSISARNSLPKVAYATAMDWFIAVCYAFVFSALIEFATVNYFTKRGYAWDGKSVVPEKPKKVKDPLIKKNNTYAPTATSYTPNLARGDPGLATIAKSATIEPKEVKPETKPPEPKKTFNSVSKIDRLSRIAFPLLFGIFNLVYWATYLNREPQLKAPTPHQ
# Sequence (P47870 25-512 limits assumed): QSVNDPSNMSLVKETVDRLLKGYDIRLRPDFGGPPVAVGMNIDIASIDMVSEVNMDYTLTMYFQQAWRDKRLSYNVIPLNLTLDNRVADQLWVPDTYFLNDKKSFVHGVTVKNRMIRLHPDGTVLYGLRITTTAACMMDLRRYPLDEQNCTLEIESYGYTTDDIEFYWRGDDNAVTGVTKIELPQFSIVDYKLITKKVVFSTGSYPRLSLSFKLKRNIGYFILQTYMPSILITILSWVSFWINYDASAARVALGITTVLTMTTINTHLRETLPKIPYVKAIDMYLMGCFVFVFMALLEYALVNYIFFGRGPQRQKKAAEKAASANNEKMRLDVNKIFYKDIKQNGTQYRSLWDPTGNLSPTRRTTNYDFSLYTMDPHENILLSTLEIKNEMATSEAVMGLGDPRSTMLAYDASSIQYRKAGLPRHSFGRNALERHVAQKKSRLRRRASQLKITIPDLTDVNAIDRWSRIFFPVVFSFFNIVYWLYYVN
# Sequence (P18507 40-475 partner): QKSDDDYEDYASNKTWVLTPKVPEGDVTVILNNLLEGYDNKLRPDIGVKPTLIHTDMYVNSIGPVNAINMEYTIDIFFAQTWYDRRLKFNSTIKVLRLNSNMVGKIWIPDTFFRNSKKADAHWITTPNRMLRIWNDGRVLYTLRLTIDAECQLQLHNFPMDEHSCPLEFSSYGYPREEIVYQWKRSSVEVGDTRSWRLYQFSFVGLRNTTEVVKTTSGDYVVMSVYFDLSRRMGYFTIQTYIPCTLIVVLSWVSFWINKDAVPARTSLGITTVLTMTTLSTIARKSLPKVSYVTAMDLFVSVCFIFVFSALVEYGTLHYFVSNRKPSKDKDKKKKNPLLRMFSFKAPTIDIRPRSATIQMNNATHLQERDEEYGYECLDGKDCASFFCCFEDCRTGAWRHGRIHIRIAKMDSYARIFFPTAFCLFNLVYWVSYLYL
# Experiment notes: Whole-cell patch clamp, intrasynaptic functional activity (positive allosteric regulation of GABA-induced current)
# Protocol conditions: patch clamp -60 mV, GABA at EC10-20, α1β2γ2-CHO-TRex cells
Give bare numbers, in nM.

- Test smiles: "C[C@@]1(O)CC[C@H]2[C@H](CC[C@@H]3[C@@H]2CC[C@]2(C)[C@@H](C(=O)Cn4cnn(-c5ccccc5F)c4=O)CC[C@@H]32)C1"
  U: "nM"
  EC50: 171
- Test smiles: "C[C@@]1(O)CC[C@@]2(C)[C@@H](CC[C@@H]3[C@@H]2CC[C@]2(C)[C@@H](C(=O)Cn4cnn(-c5ccnc(F)c5)c4=O)CC[C@@H]32)C1"
  U: "nM"
  EC50: 280
- Test smiles: "CC(C)(C)n1ncn(CC(=O)[C@H]2CC[C@H]3[C@@H]4CC[C@@H]5C[C@](C)(O)CC[C@@H]5[C@H]4CC[C@]23C)c1=O"
  U: "nM"
  EC50: 121
- Test smiles: "Cn1ncn(CC(=O)[C@H]2CC[C@H]3[C@@H]4CC[C@@H]5C[C@](C)(O)CC[C@@H]5[C@H]4CC[C@]23C)c1=O"
  U: "nM"
  EC50: 444

Given item `C[C@@]1(O)CC[C@H]2[C@H](CC[C@@H]3[C@@H]2CC[C@]2(C)[C@@H](C(=O)Cn4cnn(-c5ccc(F)cc5)c4=O)CC[C@@H]32)C1` , the value recorded as its EC50 is 220

----------
# Target entity: α1β2γ2 GABA receptors (α1β2γ2-CHO-TRex stable cell strain) (Homo sapiens, UniProt P14867+P47870)
# Construct: expressed in transfected cells
# Experiment notes: Whole-cell patch clamp, intrasynaptic functional activity (positive allosteric regulation of GABA-induced current)
# Format: cell-based
# Protocol conditions: patch clamp -60 mV, GABA at EC10-20, α1β2γ2-CHO-TRex cells
Outcome measure: Emax (%)
Give bare numbers, in %.

The following compounds have reported results that may help.
- Test smiles: "C[C@@]1(O)CC[C@H]2[C@H](CC[C@@H]3[C@@H]2CC[C@]2(C)[C@@H](C(=O)Cn4cnn(-c5cc(F)ccc5F)c4=O)CC[C@@H]32)C1"
  Emax, %: 347
- Test smiles: "C[C@@]1(O)CC[C@H]2[C@H](CC[C@@H]3[C@@H]2CC[C@]2(C)[C@@H](C(=O)Cn4ccn(-c5cccc(F)c5)c4=O)CC[C@@H]32)C1"
  Emax, %: 594
- Test smiles: "C[C@@]1(O)CC[C@H]2[C@H](CC[C@@H]3[C@@H]2CC[C@]2(C)[C@@H](C(=O)Cn4cnn(-c5ccnc(C(F)F)c5)c4=O)CC[C@@H]32)C1"
  Emax, %: 600
- Test smiles: "C[C@@]1(O)CC[C@H]2[C@H](CC[C@@H]3[C@@H]2CC[C@]2(C)[C@@H](C(=O)Cn4cnn(-c5cc(F)nc(F)c5)c4=O)CC[C@@H]32)C1"
  Emax, %: 762
- Test smiles: "C[C@@]1(O)CC[C@H]2[C@H](CC[C@@H]3[C@@H]2CC[C@]2(C)[C@@H](C(=O)Cn4cnn(-c5cc(F)ccn5)c4=O)CC[C@@H]32)C1"
  Emax, %: 446

Need Emax for each of these compounds.
1. C[C@@]1(O)CC[C@H]2[C@H](CC[C@@H]3[C@@H]2CC[C@]2(C)[C@@H](C(=O)Cn4cnn(-c5cccnc5)c4=O)CC[C@@H]32)C1
2. C[C@@]1(O)CC[C@H]2[C@H](CC[C@@H]3[C@@H]2CC[C@]2(C)[C@@H](C(=O)Cn4cnn(-c5cncc(F)c5)c4=O)CC[C@@H]32)C1
3. C[C@@]1(O)CC[C@H]2[C@H](CC[C@@H]3[C@@H]2CC[C@]2(C)[C@@H](C(=O)Cn4cnn(-c5cccc(F)n5)c4=O)CC[C@@H]32)C1
4. C[C@@]1(O)CC[C@H]2[C@H](CC[C@@H]3[C@@H]2CC[C@]2(C)[C@@H](C(=O)Cn4cnn(-c5ccnc(OCC(F)(F)F)c5)c4=O)CC[C@@H]32)C1
5. Cn1ncn(CC(=O)[C@H]2CC[C@H]3[C@@H]4CC[C@@H]5C[C@](C)(O)CC[C@@H]5[C@H]4CC[C@]23C)c1=O
6. C[C@@]1(O)CC[C@H]2[C@H](CC[C@@H]3[C@@H]2CC[C@]2(C)[C@@H](C(=O)Cn4cnn(-c5ccc(F)cc5)c4=O)CC[C@@H]32)C1

## Output
773
618
724
675
242
390

Need Emax for each of these compounds.
1. COc1cccc(-n2ncn(CC(=O)[C@H]3CC[C@H]4[C@@H]5CC[C@@H]6C[C@](C)(O)CC[C@@H]6[C@H]5CC[C@]34C)c2=O)c1
2. C[C@@]1(O)CC[C@@]2(C)[C@@H](CC[C@@H]3[C@@H]2CC[C@]2(C)[C@@H](C(=O)Cn4cnn(-c5cccc(F)c5)c4=O)CC[C@@H]32)C1
3. C[C@@]1(O)CC[C@H]2[C@H](CC[C@@H]3[C@@H]2CC[C@]2(C)[C@@H](C(=O)Cn4c(=O)n(-c5ccccc5)c5ccccc54)CC[C@@H]32)C1
4. C[C@@]1(O)CC[C@H]2[C@H](CC[C@@H]3[C@@H]2CC[C@]2(C)[C@@H](C(=O)Cn4cnn(C5CCCCC5)c4=O)CC[C@@H]32)C1

## Output
410
495
305
873

Given item `C[C@@]1(O)CC[C@H]2[C@H](CC[C@@H]3[C@@H]2CC[C@]2(C)[C@@H](C(=O)Cn4cnn(-c5cccc(F)c5F)c4=O)CC[C@@H]32)C1` , the value recorded as its Emax is 445

Data credit: patent US20250368678A1
